Reference source for all entries: ChEMBL document CHEMBL5365464

Catalogue of molecules with associated IC50
tested on: BaF3; assay: Antiproliferative activity against mouse BaF3 cells harbouring ETV6-TRKB G709C mutant incubated for 3 days by CCK8 method; conditions: BaF3, 72 h

STRUCTURE STRING | EXPERIMENTAL TARGET | IC50 [nM]
C[C@H]1CNC(=O)c2cnn3ccc(nc23)N[C@H](C)c2cc(F)ccc2O1 | BaF3 | 9.44
C[C@@H]1CCc2ncc(F)cc2[C@H]2CCCN2c2ccn3ncc(c3n2)C(=O)N1 | BaF3 | 42

* * *

test: Tmax in ICR mouse at 2.0 mg/kg, iv measured upto 24 hrs by LC-MS/MS analysis; format: ADME, organism-based; conditions: in vivo

STRUCTURE STRING | Tmax, min
Cc1c2cc(cc1C(=O)Nc1cc(CN3CCN(C)CC3)cc(C3CC3)c1)OCCCCCCCNC(=O)c1ccc3ncc(n3n1)C#C2 | 4.8

* * *

experiment: Clearance in ICR mouse at 2.0 mg/kg, iv measured upto 24 hrs by LC-MS/MS analysis; assay type: ADME, organism-based; details: in vivo

STRUCTURE STRING | clearance [mL/min/kg]
Cc1c2cc(cc1C(=O)Nc1cc(CN3CCN(C)CC3)cc(C3CC3)c1)OCCCCCCCNC(=O)c1ccc3ncc(n3n1)C#C2 | 26.7

* * *

target: High affinity nerve growth factor receptor (Homo sapiens, UniProt P04629, G667C); assay: Inhibition of TRKA G667C mutant (unknown origin) expressed in baculovirus expression system Sf9 cells using Ser/Thr 06 as peptide substrate incubated for 1 hr in presence of ATP by FRET based Z-LYTE assay
Sequence (P04629 33-796 G667C limits assumed): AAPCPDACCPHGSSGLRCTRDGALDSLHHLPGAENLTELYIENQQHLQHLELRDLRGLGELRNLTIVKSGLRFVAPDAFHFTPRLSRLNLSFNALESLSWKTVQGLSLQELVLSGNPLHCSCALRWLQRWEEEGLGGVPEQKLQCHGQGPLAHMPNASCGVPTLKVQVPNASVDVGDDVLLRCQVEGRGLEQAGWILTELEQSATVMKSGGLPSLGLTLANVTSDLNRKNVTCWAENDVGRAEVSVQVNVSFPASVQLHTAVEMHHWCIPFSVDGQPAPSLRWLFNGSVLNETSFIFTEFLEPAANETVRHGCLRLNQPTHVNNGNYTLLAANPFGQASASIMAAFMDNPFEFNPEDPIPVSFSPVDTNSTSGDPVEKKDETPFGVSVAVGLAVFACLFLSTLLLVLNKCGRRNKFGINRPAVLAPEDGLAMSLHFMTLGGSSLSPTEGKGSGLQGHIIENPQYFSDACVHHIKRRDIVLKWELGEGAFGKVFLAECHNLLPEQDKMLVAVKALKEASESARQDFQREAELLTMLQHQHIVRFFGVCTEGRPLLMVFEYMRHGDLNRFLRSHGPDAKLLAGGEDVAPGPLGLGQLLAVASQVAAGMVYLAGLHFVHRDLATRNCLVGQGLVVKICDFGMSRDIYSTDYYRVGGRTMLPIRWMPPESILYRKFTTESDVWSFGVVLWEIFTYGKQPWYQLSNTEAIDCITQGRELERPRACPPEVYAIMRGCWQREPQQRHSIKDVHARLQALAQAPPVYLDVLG
pIC50: −log10 of the molar value.
Please enter 1 (yes) where pIC50 is greater than or equal to 8, and 0 (no) where it is lower.

STRUCTURE STRING | EXPERIMENTAL TARGET | CAT
Cc1cn(-c2cc(NC(=O)c3cc4cc(c3C)C#Cc3cnc5ccc(nn35)C(=O)NCCCCCO4)cc(C(F)(F)F)c2)cn1 | High affinity nerve growth factor receptor (Homo sapiens, UniProt P04629, G667C) | 0 (no)
Cc1c2cc(cc1C(=O)Nc1cc(CN3CCN(C)CC3)cc(C(C)(C)C)c1)OCCCCCCCNC(=O)c1ccc3ncc(n3n1)C#C2 | High affinity nerve growth factor receptor (Homo sapiens, UniProt P04629, G667C) | 1 (yes)
Cc1c2cc(cc1C(=O)Nc1cc(CN3CCCN(C)CC3)cc(C(F)(F)F)c1)OCCCCCCCNC(=O)c1ccc3ncc(n3n1)C#C2 | High affinity nerve growth factor receptor (Homo sapiens, UniProt P04629, G667C) | 1 (yes)

* * *

test: AUC (0 to t) in ICR mouse at 10 mg/kg, po measured upto 24 hrs by LC-MS/MS analysis; type: ADME, organism-based; parameters: time < 24 hrs, dose 10 mg/kg, route po; settings: in vivo
METRIC: AUC(0-t) at 24 h (µg·h/mL)

STRUCTURE STRING | UNITS LABEL | RESULT VALUE
Cc1c2cc(cc1C(=O)Nc1cc(CN3CCN(C)CC3)cc(C3CC3)c1)OCCCCCCCNC(=O)c1ccc3ncc(n3n1)C#C2 | µg·h/mL | 0.501

* * *

Biological target: Muscle, skeletal receptor tyrosine-protein kinase (Homo sapiens, UniProt O15146)
Sequence (O15146 whole entry): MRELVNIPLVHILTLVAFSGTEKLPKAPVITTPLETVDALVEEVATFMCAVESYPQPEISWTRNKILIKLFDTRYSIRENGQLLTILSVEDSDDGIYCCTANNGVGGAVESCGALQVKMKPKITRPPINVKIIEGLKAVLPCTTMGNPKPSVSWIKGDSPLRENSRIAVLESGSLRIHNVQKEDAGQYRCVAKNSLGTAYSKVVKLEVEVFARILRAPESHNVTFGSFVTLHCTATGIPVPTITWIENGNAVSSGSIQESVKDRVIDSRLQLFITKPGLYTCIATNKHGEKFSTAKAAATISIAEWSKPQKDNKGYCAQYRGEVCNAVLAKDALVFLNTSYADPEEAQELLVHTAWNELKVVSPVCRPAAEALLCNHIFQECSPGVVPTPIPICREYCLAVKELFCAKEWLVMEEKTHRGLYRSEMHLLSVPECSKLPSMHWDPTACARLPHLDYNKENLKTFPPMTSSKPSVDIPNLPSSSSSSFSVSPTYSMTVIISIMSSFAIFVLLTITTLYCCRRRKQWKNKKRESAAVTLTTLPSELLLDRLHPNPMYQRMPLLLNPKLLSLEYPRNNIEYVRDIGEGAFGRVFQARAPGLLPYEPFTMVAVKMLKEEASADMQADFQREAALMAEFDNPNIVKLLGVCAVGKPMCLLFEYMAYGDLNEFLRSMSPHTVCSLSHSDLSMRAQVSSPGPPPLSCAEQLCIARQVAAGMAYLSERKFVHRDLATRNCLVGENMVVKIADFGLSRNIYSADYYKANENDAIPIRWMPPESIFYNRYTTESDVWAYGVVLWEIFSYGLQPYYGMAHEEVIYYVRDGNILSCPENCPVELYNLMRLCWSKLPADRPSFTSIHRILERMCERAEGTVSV
METRIC: IC50 (nM)

STRUCTURE STRING | RESULT VALUE
Cc1c2cc(cc1C(=O)Nc1cc(CN3CCN(C)CC3)cc(C3CC3)c1)OCCCCCCCNC(=O)c1ccc3ncc(n3n1)C#C2 | 12.8
